- system: Ba/F3 cells containing Ros1 L2026M (Homo sapiens, UniProt P08922, L2026M, cells depend on it, form not given)
- Sequence (P08922 whole entry L2026M, form open): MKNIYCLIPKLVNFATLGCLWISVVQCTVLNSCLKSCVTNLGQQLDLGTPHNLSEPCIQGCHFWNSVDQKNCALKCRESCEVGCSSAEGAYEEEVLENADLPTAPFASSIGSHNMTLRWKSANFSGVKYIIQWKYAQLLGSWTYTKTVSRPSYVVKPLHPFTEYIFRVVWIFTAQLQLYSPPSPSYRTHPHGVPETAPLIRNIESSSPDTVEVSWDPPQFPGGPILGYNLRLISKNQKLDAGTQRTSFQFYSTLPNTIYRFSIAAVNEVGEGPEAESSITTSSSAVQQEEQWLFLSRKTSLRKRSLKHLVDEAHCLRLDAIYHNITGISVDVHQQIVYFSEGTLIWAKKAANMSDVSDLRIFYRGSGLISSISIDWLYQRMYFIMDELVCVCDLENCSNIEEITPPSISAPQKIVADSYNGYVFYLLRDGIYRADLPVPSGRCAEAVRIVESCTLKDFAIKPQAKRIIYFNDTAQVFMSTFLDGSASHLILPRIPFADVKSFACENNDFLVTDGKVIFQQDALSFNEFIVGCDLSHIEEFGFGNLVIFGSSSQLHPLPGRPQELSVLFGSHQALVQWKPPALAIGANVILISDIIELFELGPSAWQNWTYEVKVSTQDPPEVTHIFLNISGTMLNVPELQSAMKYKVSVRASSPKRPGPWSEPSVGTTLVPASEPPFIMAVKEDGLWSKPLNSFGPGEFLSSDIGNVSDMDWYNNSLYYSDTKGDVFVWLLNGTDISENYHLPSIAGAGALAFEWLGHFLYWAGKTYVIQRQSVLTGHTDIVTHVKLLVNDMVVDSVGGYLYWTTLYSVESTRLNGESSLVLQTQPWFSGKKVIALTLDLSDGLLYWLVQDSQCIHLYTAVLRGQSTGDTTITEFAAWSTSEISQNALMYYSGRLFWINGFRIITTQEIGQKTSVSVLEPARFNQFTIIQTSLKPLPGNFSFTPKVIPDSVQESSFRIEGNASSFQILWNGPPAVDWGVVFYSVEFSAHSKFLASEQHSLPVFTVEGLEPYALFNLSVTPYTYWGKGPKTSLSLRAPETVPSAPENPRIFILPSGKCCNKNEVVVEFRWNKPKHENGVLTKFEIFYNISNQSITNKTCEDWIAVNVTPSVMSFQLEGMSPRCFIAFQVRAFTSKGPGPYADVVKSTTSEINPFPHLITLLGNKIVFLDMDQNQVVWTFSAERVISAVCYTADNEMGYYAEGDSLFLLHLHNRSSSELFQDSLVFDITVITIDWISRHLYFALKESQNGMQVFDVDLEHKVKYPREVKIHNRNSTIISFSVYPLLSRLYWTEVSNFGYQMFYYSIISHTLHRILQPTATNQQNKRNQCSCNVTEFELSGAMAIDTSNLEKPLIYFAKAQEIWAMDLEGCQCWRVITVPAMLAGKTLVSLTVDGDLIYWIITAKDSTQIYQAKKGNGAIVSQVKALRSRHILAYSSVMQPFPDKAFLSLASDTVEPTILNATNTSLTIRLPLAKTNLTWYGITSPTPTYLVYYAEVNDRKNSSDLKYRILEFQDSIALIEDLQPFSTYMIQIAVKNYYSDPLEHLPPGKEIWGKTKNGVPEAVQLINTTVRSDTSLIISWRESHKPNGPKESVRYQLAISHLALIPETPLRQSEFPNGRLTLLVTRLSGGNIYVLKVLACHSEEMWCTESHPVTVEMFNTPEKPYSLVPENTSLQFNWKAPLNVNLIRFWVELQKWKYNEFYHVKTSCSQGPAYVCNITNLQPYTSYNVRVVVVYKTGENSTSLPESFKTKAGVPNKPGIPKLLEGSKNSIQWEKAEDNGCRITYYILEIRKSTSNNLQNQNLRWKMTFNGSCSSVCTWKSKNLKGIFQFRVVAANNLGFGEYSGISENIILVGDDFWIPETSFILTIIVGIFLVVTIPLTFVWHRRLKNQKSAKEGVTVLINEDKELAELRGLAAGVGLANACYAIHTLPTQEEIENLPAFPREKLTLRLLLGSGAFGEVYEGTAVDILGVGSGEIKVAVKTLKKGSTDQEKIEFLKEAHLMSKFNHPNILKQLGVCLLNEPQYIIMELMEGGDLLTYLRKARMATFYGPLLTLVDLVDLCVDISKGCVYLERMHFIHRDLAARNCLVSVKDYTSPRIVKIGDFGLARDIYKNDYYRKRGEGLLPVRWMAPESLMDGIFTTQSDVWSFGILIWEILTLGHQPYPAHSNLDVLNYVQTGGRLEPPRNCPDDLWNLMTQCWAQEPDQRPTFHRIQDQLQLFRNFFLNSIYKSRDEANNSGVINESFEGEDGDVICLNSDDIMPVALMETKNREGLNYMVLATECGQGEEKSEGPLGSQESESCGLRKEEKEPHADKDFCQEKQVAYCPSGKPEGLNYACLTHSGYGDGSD
- methodSummary: Ba/F3-Ros1 cell proliferation assay, L2026M gatekeeper mutant
- Format: cell-based, murine
- conditionNotes: -log IC50 (M), no IL-3
endpointLabel: Ba/F3 Ros1 L2026M (-IL-3) pIC50

CC(C)c1ccc(COc2ccc(-c3c(-c4ccncc4)nn4c3N(CCO)CC4)cc2)cc1 [Co. 10] | 6.8
CC(C)c1ccc(COc2ccc(-c3c(-c4ccncc4)nn4ccc(=O)[nH]c34)cc2)cc1 [Co. E] | 6.9
CC(C)c1ccc(COc2ccc(-c3c(-c4ccncc4)nn4c3N(CCO)CCC4)cc2)cc1 [Co. 21] | 6.9
